- Assay protocol: DRUGMATRIX: Interleukin IL-1 radioligand binding (ligand: [125I] interleukin 1beta)
- Type: cell membranes, Membrane
- Applied conditions: nih3t3; Not Active = under 50% inhibition at 10 µM

Structure string	IC50
O=C(/C=C/c1ccc(O)c(O)c1)OCCc1ccccc1	Not Active
CC(C)(C)NC[C@H](O)COc1nsnc1N1CCOCC1	Not Active
CO[C@H]1C[C@@H]2CC[C@@H](C)[C@@](O)(O2)C(=O)C(=O)N2CCCC[C@H]2C(=O)O[C@H]([C@H](C)C[C@@H]2CC[C@@H](O)[C@H](OC)C2)CC(=O)[C@H](C)/C=C(\C)[C@@H](O)[C@@H](OC)C(=O)[C@H](C)C[C@H](C)/C=C/C=C/C=C/1C	Not Active

###

- Target entity: 5-hydroxytryptamine receptor 1A (Rattus norvegicus, UniProt P19327); also: in other assays of this panel Not Active means under 50% inhibition at 10 µM
- Sequence (P19327 whole entry): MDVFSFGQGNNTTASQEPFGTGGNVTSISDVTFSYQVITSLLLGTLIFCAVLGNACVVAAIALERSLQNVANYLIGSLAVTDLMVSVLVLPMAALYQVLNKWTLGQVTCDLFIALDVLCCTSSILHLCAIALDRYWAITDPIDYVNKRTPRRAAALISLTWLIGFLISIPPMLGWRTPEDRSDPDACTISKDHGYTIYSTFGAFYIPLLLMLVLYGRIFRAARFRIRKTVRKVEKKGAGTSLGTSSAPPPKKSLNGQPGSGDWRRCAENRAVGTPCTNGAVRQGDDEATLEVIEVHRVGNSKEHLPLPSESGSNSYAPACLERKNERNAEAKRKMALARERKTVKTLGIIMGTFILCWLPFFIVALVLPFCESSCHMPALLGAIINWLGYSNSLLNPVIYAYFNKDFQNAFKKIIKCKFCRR
- Assay type: cell membranes, CHO-K1, Membrane
- Applied conditions: read-out: IC50
pIC50: −log10 of the molar value.
Decision: pIC50 compared against 6; not below it gives class 1, below it gives class 0.

These recorded examples may help you get a feel for the data.
Molecule	Category label
CN1C[C@H](C(=O)N[C@]2(C)O[C@@]3(O)[C@@H]4CCCN4C(=O)[C@H](Cc4ccccc4)N3C2=O)C[C@@H]2c3cccc4[nH]cc(c34)C[C@H]21 [DIHYDROERGOTAMINE]	class 1
OCCN1CCN(CCCN2c3ccccc3Sc3ccc(C(F)(F)F)cc32)CC1	class 0

Query: Confirm if pIC50 reported for the molecule `CC(C)C[C@H]1C(=O)N2CCC[C@H]2[C@]2(O)O[C@](NC(=O)[C@@H]3C=C4c5cccc6[nH]c(Br)c(c56)C[C@H]4N(C)C3)(C(C)C)C(=O)N12` is 6 or above.
Result: class 1

Query: Threshold query (pIC50 >= 6) on `CCN[C@@H](C)Cc1cccc(C(F)(F)F)c1`
Result: class 0

Query: Answer whether pIC50 of CC[C@@H](CO)NC(=O)[C@@H]1C=C2c3cccc4c3c(cn4C)C[C@H]2N(C)C1 [METHYSERGIDE] is greater than or equal to 6.
Result: class 1

Query: Dear colleague, could you confirm whether `N=C(N)N/N=C/c1c(Cl)cccc1Cl` has pIC50 at or above 6?
Result: class 0

Query: Dear colleague, could you confirm whether `CC(C)(C)NC[C@H](O)COc1nsnc1N1CCOCC1` has pIC50 at or above 6?
Result: class 0

###

- Target entity: Cysteinyl leukotriene receptor 1 (Homo sapiens, UniProt Q9Y271); also: in other assays of this panel Not Active means under 50% inhibition at 10 µM
- Sequence (Q9Y271 whole entry): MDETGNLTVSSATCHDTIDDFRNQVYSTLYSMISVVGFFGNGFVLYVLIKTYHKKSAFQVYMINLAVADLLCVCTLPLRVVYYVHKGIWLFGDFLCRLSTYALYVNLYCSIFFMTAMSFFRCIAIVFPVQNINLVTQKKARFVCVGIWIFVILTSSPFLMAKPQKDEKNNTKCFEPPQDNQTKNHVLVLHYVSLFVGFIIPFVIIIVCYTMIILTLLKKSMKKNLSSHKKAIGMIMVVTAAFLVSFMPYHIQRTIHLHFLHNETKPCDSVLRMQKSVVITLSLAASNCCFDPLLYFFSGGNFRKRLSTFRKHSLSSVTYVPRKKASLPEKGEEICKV
- Type: cell membranes, Membrane
- Applied conditions: cho-k1
Property measured: IC50

> print(dat)
                           structure.string     reading
1  CC[C@]1(O)CC[C@H]2[C@@H]3CCC4=CCCC[C@@H]4[C@H]3CC[C@@]21C  Not Active
2                            Nn1nnc2ccccc21  Not Active
3  CC(C)C[C@H]1C(=O)N2CCC[C@H]2[C@]2(O)O[C@](NC(=O)[C@@H]3C=C4c5cccc6[nH]c(Br)c(c56)C[C@H]4N(C)C3)(C(C)C)C(=O)N12  Not Active
4         O=P(O)(O)C(O)(Cc1cccnc1)P(=O)(O)O  Not Active

###

- Assay protocol: DRUGMATRIX: Sigma2 radioligand binding (ligand: [3H] Ifenprodil)
- Assay type: cell membranes, Rattus norvegicus, Wistar, Brain, Membrane
- Applied conditions: Not Active = under 50% inhibition at 10 µM
Property measured: Ki

Compound	Property measured	Reading
NC[C@H]1O[C@H](O[C@H]2[C@H](O)[C@@H](O[C@H]3O[C@H](CO)[C@@H](O)[C@H](N)[C@H]3O)[C@H](N)C[C@@H]2N)[C@H](O)[C@@H](O)[C@@H]1O	Ki	Not Active
CC(=O)O[C@H]1C[C@@H]2CC[C@@H]3[C@H](CC[C@@]4(C)[C@H]3C[C@H]([N+]3(C)CCCCC3)[C@@H]4OC(C)=O)[C@@]2(C)C[C@@H]1N1CCCCC1.[Br-] [VECURONIUM BROMIDE]	Ki	Not Active
CN1C[C@H](C(=O)N[C@]2(C)O[C@@]3(O)[C@@H]4CCCN4C(=O)[C@H](Cc4ccccc4)N3C2=O)C[C@@H]2c3cccc4[nH]cc(c34)C[C@H]21 [DIHYDROERGOTAMINE]	Ki	Not Active
